Biological target: Tyrosine-protein kinase Mer (Homo sapiens)
Test: Inhibition of MER (unknown origin) at 1 uM preincubated for 15 mins followed by substrate and ATP addition and measured after 3 hrs by ADP-Glo kinase assay relative to control
Settings: time 195.0 min
Given measured inhibition, output criterion met if it is greater than or equal to 20% and criterion not met if not.

Observe how each entry below is paired with its result.
Nc1cccc(-c2c(-c3ccccc3)oc3ncnc(Oc4ccc(NC(=O)C5(C(=O)Nc6ccc(F)cc6)CC5)cc4)c23)c1 : criterion met
Nc1cccc(-c2c(-c3ccccc3)oc3ncnc(Nc4ccc(NC(=O)C5(C(=O)Nc6ccc(F)cc6)CC5)cc4)c23)c1 : criterion not met
Nc1cccc(-c2c(-c3ccccc3)oc3ncnc(Oc4ccc(NC(=S)NC(=O)Cc5ccccc5)cc4)c23)c1 : criterion not met
O=C(Nc1ccc(F)cc1)C1(C(=O)Nc2ccc(Oc3ncnc4oc(-c5ccccc5)cc34)cc2)CC1 : criterion not met

Below: the item to evaluate.
Query: # bool: inhibition of "O=C(Nc1ccc(F)cc1)C1(C(=O)Nc2ccc(Oc3ncnc4oc(-c5ccccc5)c(-c5ccccc5)c34)cc2)CC1" >= 20%
Reply: criterion met
